# system_name: cloned human or rodent CNS receptors, channels, and transporters (PDSP panel) (Homo sapiens)
# Construct: expressed in transfected cells
# Sequence (P08908 whole entry): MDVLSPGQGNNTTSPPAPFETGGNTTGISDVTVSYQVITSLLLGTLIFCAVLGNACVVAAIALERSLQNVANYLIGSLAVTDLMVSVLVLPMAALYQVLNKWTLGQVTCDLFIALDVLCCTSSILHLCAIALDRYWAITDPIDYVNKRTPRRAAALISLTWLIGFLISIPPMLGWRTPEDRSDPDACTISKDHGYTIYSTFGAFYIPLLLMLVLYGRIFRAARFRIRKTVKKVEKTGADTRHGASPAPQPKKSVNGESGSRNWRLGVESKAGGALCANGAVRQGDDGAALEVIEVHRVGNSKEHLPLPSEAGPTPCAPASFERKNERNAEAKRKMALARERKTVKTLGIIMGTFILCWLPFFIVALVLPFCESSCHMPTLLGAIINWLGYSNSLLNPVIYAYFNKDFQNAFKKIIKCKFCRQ
# test_summary: PDSP GPCR panel primary binding assays at 10 μM
# condition_parameters: Receptor 5-HT1A; primary assay, 10 μM; mean of Inhibition 1-4
result_type: Mean %
Returns: string containing the numeric result and its unit.

Example entries begin here.
{"columns": ["compound", "result_type", "readout_value"],
 "data": [
  ["CCCCNc1ncc2c(-c3ccc(CN4CCN(C)CC4)cc3)cn([C@H]3CC[C@H](O)CC3)c2n1 [UNC2025C, UNC2025]", "Mean %", "10.34%"],
  ["O=c1oc2ccccc2cc1-c1cn2cc(Cc3ccc(F)cc3)sc2n1 [UNC10302680A, iMDK]", "Mean %", "1.77%"],
  ["Cl.NC(=O)c1cnc(N[C@@H]2CCCC[C@@H]2N)nc1Nc1cccc(-n2nccn2)c1 [UNC10302682A, P505-15 (PRT06207 HCl)]", "Mean %", "14.57%"]
]}

Record c1cn2cc(-c3ccc4cn[nH]c4c3)nc(Nc3ccc(N4CCOCC4)cc3)c2n1 [UNC10302678A, Entospletinib (GS-9973)] . Reported Mean %: 4.27%
